Provenance of the data: paper PMC10397247

Biological target: T1, 4H918-bN
T1 chain: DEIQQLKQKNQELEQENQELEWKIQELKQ
Assay: two-hybrid library CCNG1;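 further: natural log of median RNA to DNA barcode read ratio; higher means stronger binding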
experimentalEndpoint: interaction score

Completed entries (count: 5):
INSERT INTO results (binder, experimentalendpoint, recordedmeasurement) VALUES
  ('DENQQLEQKIQELEQKIQELKWKNQELKQ [4H1328-bN]', 'interaction score', -0.287),
  ('DEIQQLEQKIQELKQEIQELKWENQELEQ [4H331-bN]', 'interaction score', -0.476),
  ('DKNQQLKQKIQELEQEIQELKWKNQELEQ [4H3855-bN]', 'interaction score', -1.48),
  ('DKIQQLKQEIQELEQKNQELEWEIQELKQ [4H2610-bN]', 'interaction score', -0.666),
  ('DEIAQLKQKNAELEQEIAELKWEIAQLKQ [4H906-bA]', 'interaction score', -0.333);

We now examine a further binder.
Please give the measured interaction score for this binder: DKNQQLKQKIQELEQEIQELEWENQELEQ [4H3843-bN]
-1.05
